Target: T1, alpha-s1 casein from Bos taurus
T1 chain: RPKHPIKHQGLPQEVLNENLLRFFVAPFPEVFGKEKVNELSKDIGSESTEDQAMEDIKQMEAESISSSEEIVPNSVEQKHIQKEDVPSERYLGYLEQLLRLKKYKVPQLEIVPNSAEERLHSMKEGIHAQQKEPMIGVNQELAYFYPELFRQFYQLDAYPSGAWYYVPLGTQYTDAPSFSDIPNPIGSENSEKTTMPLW
Please go through the items and note down their αs1-I CN, 16 hours, 30° C..
Give bare numbers, in Volume.

List the reported αs1-I CN, 16 hours, 30° C. of each protein below.
1. bovine chymosin B variant #110 (A51V, K221V, N50D, N144H, N160D, S201D, Q242E, M267E, Q280E) (protein) GEVASVPLTNYLDSQYFGKIYLGTPPQEFTVLFDTGSSDFWVPSIYCKSDVCKNHQRFDPRKSSTFQNLGKPLSIHYGTGSMQGILGYDTVTVSNIVDIQQTVGLSTQEPGDVFTYAEFDGILGMAYPSLASEYSIPVFDNMMHRHLVAQDLFSVYMDRDGQESMLTLGAIDPSYYTGSLHWVPVTVQQYWQFTVDSVTIDGVVVACEGGCQAILDTGTSVLVGPSSDILNIQQAIGATQNEYGEFDIDCDNLSYMPTVVFEINGKEYPLTPSAYTSQDEGFCTSGFQSENHSQKWILGDVFIREYYSVFDRANNLVGLAKAI
2. bovine chymosin B variant #103 (A51I, K221T) (protein) GEVASVPLTNYLDSQYFGKIYLGTPPQEFTVLFDTGSSDFWVPSIYCKSNICKNHQRFDPRKSSTFQNLGKPLSIHYGTGSMQGILGYDTVTVSNIVDIQQTVGLSTQEPGDVFTYAEFDGILGMAYPSLASEYSIPVFDNMMNRHLVAQDLFSVYMDRNGQESMLTLGAIDPSYYTGSLHWVPVTVQQYWQFTVDSVTISGVVVACEGGCQAILDTGTSTLVGPSSDILNIQQAIGATQNQYGEFDIDCDNLSYMPTVVFEINGKMYPLTPSAYTSQDQGFCTSGFQSENHSQKWILGDVFIREYYSVFDRANNLVGLAKAI

OUTPUT:
["2.26e+07", "2.03e+07"]

Data credit: patent US20150140169
